Source of measurements: ChEMBL document CHEMBL5058577

Test system: HEK-293T
METHOD: Multiplex assay against HEK293T
Assay type: toxicity, cell-based
TEST_CONDITIONS: human, 12 h, 10 µM, compound concentration 10 uM, replicate 1
Non-standard residues stand in square brackets, D forms with d. Residues, ends and D or L forms follow the SMILES beside them.
Binarize Population Apoptotic (%) at 40%; below is condition met, at or above is condition not met.

compound=CC(F)(F)CN1CCOc2c(nn(-c3ccccc3Cl)c2-c2ccc(Cl)cc2)C1=O class_name="condition not met"
compound="O=C(O)CCC/C=C\\CC1C(O)CC(O)C1/C=C/C(O)COc1cccc(Cl)c1 (stereo not given) [CLOPROSTENOL]" class_name="condition not met"
compound="CC(C)C[C@@H]1NC(=O)[C@@H](C(C)C)NC(=O)[C@@H]2CCCN2C(=O)[C@@H](CC(=O)O)NC(=O)[C@@H](Cc2c[nH]c3ccccc23)NC1=O [BQ-123] (cyclo(L[dW][dD]P[dV]))" class_name="condition met"
compound="Cl.Cl.OCCOCCN1CCN(C(c2ccccc2)c2ccc(Cl)cc2)CC1 (stereo not given) [HYDROXYZINE HYDROCHLORIDE]" class_name="condition not met"
compound="Cc1c(Cc2ccc3ccccc3n2)c2cc(F)ccc2n1CC(=O)O [TIMAPIPRANT]" class_name="condition met"
compound="CN1C[C@H](C(=O)N[C@]2(C)O[C@@]3(O)[C@@H]4CCCN4C(=O)[C@H](Cc4ccccc4)N3C2=O)C[C@@H]2c3cccc4[nH]cc(c34)C[C@H]21.CS(=O)(=O)O [DIHYDROERGOTAMINE MESYLATE]" class_name="condition met"
compound="O=c1ccc2ccc(OCCCCN3CCN(c4cccc5sccc45)CC3)cc2[nH]1 [BREXPIPRAZOLE]" class_name="condition not met"
compound="CC(C)(C)c1ccc(CSc2cnn(C(C)(C)C)c(=O)c2Cl)cc1 [PYRIDABEN]" class_name="condition not met"
compound=CN1CCC(C(=O)c2cccc(NC(=O)c3c(F)cc(F)cc3F)n2)CC1 class_name="condition not met"
compound="CCC(=O)OCC(=O)[C@@]1(OC(=O)CC)[C@@H](C)C[C@H]2[C@@H]3CCC4=CC(=O)C=C[C@]4(C)[C@@]3(Cl)[C@@H](O)C[C@@]21C [BECLOMETHASONE DIPROPIONATE]" class_name="condition not met"
compound=Cc1cc(O)c(-c2ccc([C@@H](C)CN(C)C)cc2)c2c1[nH]c(=O)c1sccc12 class_name="condition not met"
compound="Nc1nc(CC(=O)Nc2ccc(CCNC[C@H](O)c3ccccc3)cc2)cs1 [MIRABEGRON]" class_name="condition met"

---

Tested on: Fibroblast
METHOD: Multiplex assay against human fibroblast
Type: toxicity, cell-based
TEST_CONDITIONS: 48 h, 1 µM, compound concentration 1 uM, replicate 2
Listed next: entries and their corresponding Population Mitotic Cells (%).
ATTRIBUTE_MEASURED: Population Mitotic Cells (%)

compound="CCn1c(-c2nc3cc(C(=O)N4CCCC(N)C4)ccc3n2C)cc2ccccc21.Cl (centres undefined)" attribute_measured="Population Mitotic Cells (%)" readout_number=48
compound=CC(C)(C)c1ccc(CSc2cnn(C(C)(C)C)c(=O)c2Cl)cc1 attribute_measured="Population Mitotic Cells (%)" readout_number=54
compound=CN(C)C(=O)Cn1cc(-c2ccc(-c3nnc4ccccn34)cc2)cn1 attribute_measured="Population Mitotic Cells (%)" readout_number=57
compound=Cc1cc(-c2ccc3c(c2)CC[C@H]3N2CC3(CCN(C(=O)Cc4cn5cc(C)sc5n4)CC3)C2)ncn1 attribute_measured="Population Mitotic Cells (%)" readout_number=65
compound=Cn1cc(C(=O)OCC2CCN(CCNS(C)(=O)=O)CC2)c2ccccc21 attribute_measured="Population Mitotic Cells (%)" readout_number=47
compound=CSc1nc(NC2CCCC2)c([N+](=O)[O-])c(NC2CCCC2)n1 attribute_measured="Population Mitotic Cells (%)" readout_number=66
compound=COC(c1ccccc1)(c1ccccc1)[C@H](Oc1nc(C)cc(C)n1)C(=O)O attribute_measured="Population Mitotic Cells (%)" readout_number=38
compound=CN1CCC(C(=O)c2cccc(NC(=O)c3c(F)cc(F)cc3F)n2)CC1 attribute_measured="Population Mitotic Cells (%)" readout_number=43
compound=Cc1cc(NC(=O)NCCN2CCC(O)(Cc3ccccc3)CC2)c2ccccc2n1 attribute_measured="Population Mitotic Cells (%)" readout_number=38

---

Tested on: U2OS
METHOD: Multiplex assay against U2OS
Assay type: toxicity, cell-based
TEST_CONDITIONS: human, 12 h, 10 µM, compound concentration 10 uM, replicate 2
ATTRIBUTE_MEASURED: Total Cell Count

molecule=O=C(Nc1cc(-c2ccccc2)nn1-c1ccccc1F)c1ccc([N+](=O)[O-])cc1 readout_number=134
molecule=COC(c1ccccc1)(c1ccccc1)[C@H](Oc1nc(C)cc(C)n1)C(=O)O readout_number=104
molecule=Cc1cc(O)c(-c2ccc([C@@H](C)CN(C)C)cc2)c2c1[nH]c(=O)c1sccc12 readout_number=110
molecule="Cl.Cl.OCCOCCN1CCN(C(c2ccccc2)c2ccc(Cl)cc2)CC1 (stereo unspecified) [HYDROXYZINE HYDROCHLORIDE]" readout_number=141
molecule="CN(C)C/C=C/C(=O)Nc1ccc(C(=O)N2CCCC(Nc3ncc(Cl)c(-c4c[nH]c5ccccc45)n3)C2)cc1 (stereo unspecified)" readout_number=121
molecule="CCn1c(-c2nc3cc(C(=O)N4CCCC(N)C4)ccc3n2C)cc2ccccc21.Cl (stereo unspecified)" readout_number=135

---

Listed next: entries and their corresponding Total Cell Count.
Tested on: U2OS
METHOD: Multiplex assay against U2OS
Type: toxicity, cell-based
TEST_CONDITIONS: human, 24 h, 1 µM, compound concentration 1 uM, replicate 1
ATTRIBUTE_MEASURED: Total Cell Count

molecule="O=C(O)CCC/C=C\\CC1C(O)CC(O)C1/C=C/C(O)COc1cccc(Cl)c1 (centres undefined)" readout_number=237
molecule=Cc1cc(=O)n(C)c2cc(N3C(=O)CC[C@H](NS(=O)(=O)CC(C)C)[C@H]3c3ccc(Cl)cc3)ccc12 readout_number=322
molecule="Cl.Cl.OCCOCCN1CCN(C(c2ccccc2)c2ccc(Cl)cc2)CC1 (centres undefined) [HYDROXYZINE HYDROCHLORIDE]" readout_number=232
molecule="CN1CCN2c3ccccc3Cc3ccccc3C2C1.Cl (centres undefined) [MIANSERIN HYDROCHLORIDE]" readout_number=197
molecule="Cc1ccc(OCC(O)C(C)NC(C)C)c2c1CCC2.Cl (centres undefined)" readout_number=255
molecule=C[C@H](NC(=O)CNC(=O)c1cccc(Cl)c1)c1ccccc1 readout_number=275
molecule="COc1cc2nc(N3CCN(C(=O)c4ccco4)CC3)nc(N)c2cc1OC.Cl [PRAZOSIN HYDROCHLORIDE]" readout_number=273
molecule=CC(C)C[C@H](CO)Nc1nc(S[C@@H](C)c2ccccc2)nc2nc(N)sc12 readout_number=219
molecule=CC(C)(O)C(=O)N1CCN(c2ccc(C(F)(F)F)c(C3=C(c4c[nH]c5ccccc45)C(=O)NC3=O)c2)CC1 readout_number=263

---

Tested on: Fibroblast
METHOD: Multiplex assay against human fibroblast
Assay type: toxicity, cell-based
TEST_CONDITIONS: 48 h, 10 µM, compound concentration 10 uM, replicate 1
Listed next: entries and their corresponding Population Apoptotic (%).
ATTRIBUTE_MEASURED: Population Apoptotic (%)

compound=Cc1c(Cc2ccc3ccccc3n2)c2cc(F)ccc2n1CC(=O)O target_or_system=Fibroblast attribute_measured="Population Apoptotic (%)" unit_tag=% readout_number=66
compound=CC(C)(O)C(=O)N1CCN(c2ccc(C(F)(F)F)c(C3=C(c4c[nH]c5ccccc45)C(=O)NC3=O)c2)CC1 target_or_system=Fibroblast attribute_measured="Population Apoptotic (%)" unit_tag=% readout_number=54
compound=Cc1cc(O)c(-c2ccc([C@@H](C)CN(C)C)cc2)c2c1[nH]c(=O)c1sccc12 target_or_system=Fibroblast attribute_measured="Population Apoptotic (%)" unit_tag=% readout_number=70
compound="O=C(NCCNCC(O)COc1ccc(O)cc1)N1CCOCC1.O=C(NCCNCC(O)COc1ccc(O)cc1)N1CCOCC1.O=C(O)/C=C/C(=O)O (centres undefined) [XAMOTEROL FUMARATE]" target_or_system=Fibroblast attribute_measured="Population Apoptotic (%)" unit_tag=% readout_number=56

---

Test system: HEK-293T
METHOD: Multiplex assay against HEK293T
Assay type: toxicity, cell-based
TEST_CONDITIONS: human, 24 h, 1 µM, compound concentration 1 uM, replicate 2
Listed next: entries and their corresponding Population Healthy Nuclei (%).
ATTRIBUTE_MEASURED: Population Healthy Nuclei (%)

compound=CC(F)(F)CN1CCOc2c(nn(-c3ccccc3Cl)c2-c2ccc(Cl)cc2)C1=O target_or_system=HEK-293T readout_number=84
compound="CN1C[C@H](C(=O)N[C@]2(C)O[C@@]3(O)[C@@H]4CCCN4C(=O)[C@H](Cc4ccccc4)N3C2=O)C[C@@H]2c3cccc4[nH]cc(c34)C[C@H]21.CS(=O)(=O)O [DIHYDROERGOTAMINE MESYLATE]" target_or_system=HEK-293T readout_number=84
compound="O=C(NCCNCC(O)COc1ccc(O)cc1)N1CCOCC1.O=C(NCCNCC(O)COc1ccc(O)cc1)N1CCOCC1.O=C(O)/C=C/C(=O)O (stereo not given) [XAMOTEROL FUMARATE]" target_or_system=HEK-293T readout_number=80
compound="COc1cc2nc(N3CCN(C(=O)c4ccco4)CC3)nc(N)c2cc1OC.Cl [PRAZOSIN HYDROCHLORIDE]" target_or_system=HEK-293T readout_number=80
compound=CN1CCN(c2ccc(Nc3c4ccccc4nc4ccccc34)cc2)CC1.Cl.Cl.O target_or_system=HEK-293T readout_number=86
compound=COc1cc(OC2CCN(C(C)=O)CC2)ccc1C(=O)N1CCC(N2C(=O)OCc3ccccc32)CC1 target_or_system=HEK-293T readout_number=80
compound=Cn1cc(C(=O)OCC2CCN(CCNS(C)(=O)=O)CC2)c2ccccc21 target_or_system=HEK-293T readout_number=76
compound="CC(C)(C)c1ccc(CSc2cnn(C(C)(C)C)c(=O)c2Cl)cc1 [PYRIDABEN]" target_or_system=HEK-293T readout_number=83
compound="COc1cc(Nc2ncc3c(n2)-c2ccc(Cl)cc2C(c2c(F)cccc2OC)=NC3)ccc1C(=O)O [ALISERTIB]" target_or_system=HEK-293T readout_number=81
compound="C=CCN1C[C@H](C(=O)N(CCCN(C)C)C(=O)NCC)C[C@@H]2c3cccc4[nH]cc(c34)C[C@H]21 [CABERGOLINE]" target_or_system=HEK-293T readout_number=83
